assay: Oral bioavailability after i.v. dosing at 1 mg/kg, p.o. dosing at 1 mg/kg. In solution of PEG 400/water in dog; type: ADME, organism-based, Canis lupus familiaris; details: in vivo
metric: bioavailability (%)
Enter your answer as a number in %; do not include the unit.

**Q:** What does the record list as bioavailability for Fc1cc(Oc2cccnc2)cc(-n2nnc(-c3ccccn3)n2)c1 ?
**A:** 54

* * *

assay: Oral bioavailability after i.v. dosing at 1 mg/kg, p.o. dosing at 1 mg/kg. In solution of PEG 400/water in monkey; assay type: ADME, organism-based; details: cercopithecidae, in vivo
metric: bioavailability (%)
Enter your answer as a number in %; do not include the unit.

**Q:** What does the record list as bioavailability for Fc1cc(Oc2cccnc2)cc(-n2nnc(-c3ccccn3)n2)c1 ?
**A:** 27

* * *

experiment: Half life after i.v. dosing at 2 mg/kg, p.o. dosing at 10 mg/kg. In solution of PEG 400/water in rat; assay type: ADME, organism-based; conditions: in vivo
metric: half-life (h)
Enter your answer as a number in h; do not include the unit.

**Q:** What does the record list as half-life for Fc1cc(Oc2cccnc2)cc(-n2nnc(-c3ccccn3)n2)c1 ?
**A:** 2.7

* * *

test: Plasma clearance after i.v. dosing at 1 mg/kg, p.o. dosing at 1 mg/kg. In solution of PEG 400/water in dog; type: ADME, organism-based, Canis lupus familiaris; conditions: iv, read-out: Clp
metric: clearance (mL/min/kg)
Enter your answer as a number in mL/min/kg; do not include the unit.

**Q:** What does the record list as clearance for Fc1cc(Oc2cccnc2)cc(-n2nnc(-c3ccccn3)n2)c1 ?
**A:** 14

* * *

assay: Volume of distribution after i.v. dosing at 1 mg/kg, p.o. dosing at 1 mg/kg. In solution of PEG 400/water in dog; format: ADME, organism-based, Canis lupus familiaris; conditions: in vivo, iv
metric: Vd (L/kg)
Enter your answer as a number in L/kg; do not include the unit.

**Q:** What does the record list as Vd for Fc1cc(Oc2cccnc2)cc(-n2nnc(-c3ccccn3)n2)c1 ?
**A:** 1.5

* * *

assay: Volume of distribution after i.v. dosing at 2 mg/kg, p.o. dosing at 10 mg/kg. In solution of PEG 400/water in rat; assay type: ADME, organism-based; settings: in vivo, iv
metric: Vd (L/kg)
Enter your answer as a number in L/kg; do not include the unit.

**Q:** What does the record list as Vd for Fc1cc(Oc2cccnc2)cc(-n2nnc(-c3ccccn3)n2)c1 ?
**A:** 22

* * *

assay: Half life after i.v. dosing at 1 mg/kg, p.o. dosing at 1 mg/kg. In solution of PEG 400/water in dog; format: ADME, organism-based, Canis lupus familiaris; settings: in vivo
metric: half-life (h)
Enter your answer as a number in h; do not include the unit.

**Q:** What does the record list as half-life for Fc1cc(Oc2cccnc2)cc(-n2nnc(-c3ccccn3)n2)c1 ?
**A:** 2.3

* * *

target: Metabotropic glutamate receptor 5 (Rattus norvegicus); assay: Binding affinity towards Metabotropic glutamate receptor was determined by displacing [3H]3-methoxy-5-(pyridin-2-ylethynyl)pyridine from rat cortical membranes
Sequence (P31424 whole entry): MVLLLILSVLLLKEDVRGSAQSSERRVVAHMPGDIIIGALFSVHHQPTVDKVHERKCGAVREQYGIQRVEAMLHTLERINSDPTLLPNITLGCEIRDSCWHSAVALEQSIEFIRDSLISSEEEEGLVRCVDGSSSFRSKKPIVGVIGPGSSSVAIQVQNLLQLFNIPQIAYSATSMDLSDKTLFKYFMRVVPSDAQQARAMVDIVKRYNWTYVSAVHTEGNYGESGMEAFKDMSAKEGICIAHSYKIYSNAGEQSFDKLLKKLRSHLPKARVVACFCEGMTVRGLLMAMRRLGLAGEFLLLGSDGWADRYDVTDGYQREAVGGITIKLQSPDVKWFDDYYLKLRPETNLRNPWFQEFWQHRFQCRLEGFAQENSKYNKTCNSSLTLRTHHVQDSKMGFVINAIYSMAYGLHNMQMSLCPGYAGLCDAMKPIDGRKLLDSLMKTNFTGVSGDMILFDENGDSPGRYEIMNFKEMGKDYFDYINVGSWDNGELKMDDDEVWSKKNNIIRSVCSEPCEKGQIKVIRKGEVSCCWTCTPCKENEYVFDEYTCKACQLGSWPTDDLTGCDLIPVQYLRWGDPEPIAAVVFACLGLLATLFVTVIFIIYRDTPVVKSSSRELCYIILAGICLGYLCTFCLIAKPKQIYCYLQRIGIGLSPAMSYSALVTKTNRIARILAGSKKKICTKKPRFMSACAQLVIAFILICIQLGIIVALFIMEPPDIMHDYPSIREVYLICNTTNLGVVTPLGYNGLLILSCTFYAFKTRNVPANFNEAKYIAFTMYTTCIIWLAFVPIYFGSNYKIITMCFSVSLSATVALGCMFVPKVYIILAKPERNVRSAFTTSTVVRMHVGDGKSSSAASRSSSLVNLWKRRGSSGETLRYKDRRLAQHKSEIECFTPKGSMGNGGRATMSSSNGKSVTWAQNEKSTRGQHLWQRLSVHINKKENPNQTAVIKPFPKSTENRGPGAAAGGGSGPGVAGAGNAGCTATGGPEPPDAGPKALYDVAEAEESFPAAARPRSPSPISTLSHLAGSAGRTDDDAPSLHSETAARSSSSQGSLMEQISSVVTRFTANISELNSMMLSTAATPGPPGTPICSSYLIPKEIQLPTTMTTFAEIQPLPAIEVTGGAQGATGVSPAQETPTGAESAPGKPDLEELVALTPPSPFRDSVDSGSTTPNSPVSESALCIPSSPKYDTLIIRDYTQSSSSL
Mark satisfied only when Ki stays strictly below 60 nM. Values equal to the cut-off are not satisfied.

Some entries whose results are on file:
• CN(c1cccnc1)c1cc(F)cc(-n2nnc(-c3ccccn3)n2)c1 = satisfied
• Fc1cc(Cc2cccnc2)cc(-n2nnc(-c3ccccn3)n2)c1 = satisfied
• c1ccc(-c2nnn(-c3ccc(Oc4cccnc4)cc3)n2)nc1 = not satisfied

**Q:** Hello, is Ki of the following compound strictly smaller than 60 nM? c1ccc(Oc2cccc(-n3nnc(-c4ccccn4)n3)c2)cc1
**A:** not satisfied

**Q:** Hello, is Ki of the following compound strictly smaller than 60 nM? c1ccc(Oc2cccc(-n3nnc(-c4ccccn4)n3)c2)nc1
**A:** not satisfied

**Q:** Hello, is Ki of the following compound strictly smaller than 60 nM? Fc1cc(-n2nnc(-c3ccccn3)n2)cc(-n2ccc3cccnc32)c1
**A:** satisfied

**Q:** Hello, is Ki of the following compound strictly smaller than 60 nM? Fc1cc(Sc2cccnc2)cc(-n2nnc(-c3ccccn3)n2)c1
**A:** satisfied

**Q:** Hello, is Ki of the following compound strictly smaller than 60 nM? Fc1cc(Nc2cccnc2)cc(-n2nnc(-c3ccccn3)n2)c1
**A:** satisfied

**Q:** Hello, is Ki of the following compound strictly smaller than 60 nM? Fc1cc(Oc2cccnc2)cc(-n2nnc(-c3ccccn3)n2)c1
**A:** satisfied

**Q:** Hello, is Ki of the following compound strictly smaller than 60 nM? N#Cc1cccc(-n2nnc(-c3ccccn3)n2)c1
**A:** not satisfied

Where these numbers come from: ChEMBL document CHEMBL1138008
